B1: PCDHGA10 (parent)
chain: FHELQMQVTASDSGDPPLSSNVSL

- Variants of: B1
- measurement_description: protein stability index of a GFP-peptide fusion (GPS, HEK-293T) (PSI 1-6); higher = more stable;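 note: lentivirally expressed fusions sorted by FACS into six bins by GFP to DsRed ratio, PSI derived from sequencing read proportions per bin multiplied by bin number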
- condition_label: c terminus: a fixed tail appended
Decision: protein stability index compared against 2; not below it gives true, below it gives false.

F1H: true
H2N: true
S13A: false
D12N: true
P17C: false

Incoming: Tell me whether protein stability index is at least 2 here: L4S
Outgoing: true

Incoming: Another variant to check: Q5M
Outgoing: false

Incoming: Same read-out for T9D ?
Outgoing: true

Incoming: Entry to check: L18S
Outgoing: true

Incoming: M6Q ?
Outgoing: true
